Tested on: KRAS G12V dependent lung adenocarcinoma cell line, NCI-H441
Test: Cellular pERK (Thr202/Tyr204) FRET/HTRF assay
Type: cell-based
Conditions: Homo sapiens, NCI-H441, cellular pERK (Thr202/Tyr204) HTRF, NCI-H441 cells
pIC50: −log10 of the molar value.
Attribute: pIC50

Consider the worked cases shown below.
chemicalstructure=C#Cc1c(F)ccc2cccc(-c3ncc4c(N5CCCC[C@H]6[C@H](F)[C@H]65)nc(OC[C@]56CC(=C(F)F)CN5CCC65CC5)nc4c3F)c12 result="> 7.30"
chemicalstructure=[2H]C([2H])(Oc1nc(N2CCOC[C@H]3[C@H](F)[C@H]32)c2c(OC)nc(-c3cc(O)cc4ccc(F)c(C#C)c34)c(F)c2n1)[C@@]12CCCN1C[C@H](F)C2 result="> 7.30"
chemicalstructure=[2H]C([2H])(F)Oc1c(F)ccc2cc(N)cc(-c3ncc4c(N5CCOC[C@H]6[C@H](F)[C@H]65)nc(OC[C@]56C/C(=C\F)CN5CCC65CC5)nc4c3F)c12 result="> 7.30"
chemicalstructure=[2H]C([2H])(Oc1nc(N2CCOC[C@H]3[C@H](F)[C@H]32)c2cnc(-c3c(F)c(N)cc(C)c3C(F)(F)F)c(F)c2n1)[C@@]12CCCN1C[C@H](F)C2 result="6.30 to 7.30"

Next molecule, please.
What value of pIC50 has been reported for the following molecule? "[2H]C([2H])(Oc1nc(N2CC=CC[C@H]3[C@H](F)[C@H]32)c2cnc(-c3cc(N)cc4cc(F)c(F)c(C#C)c34)c(F)c2n1)[C@@]12CCCN1C[C@H](F)C2" > 7.30

###

Reported IC50 by item:
Target: KRAS (G12D)/CRAF (Homo sapiens (Human), UniProt P01116, G12D)
Sequence (P01116-2 other isoform, or with tags, fused parts or gaps G12D): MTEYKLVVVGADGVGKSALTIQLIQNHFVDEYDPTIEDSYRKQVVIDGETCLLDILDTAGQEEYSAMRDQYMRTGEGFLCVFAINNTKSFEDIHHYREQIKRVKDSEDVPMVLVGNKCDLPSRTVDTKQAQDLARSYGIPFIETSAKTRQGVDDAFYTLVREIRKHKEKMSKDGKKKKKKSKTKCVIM
Experiment: TR-FRET biochemical KRAS:CRAF protein:protein interaction assay, KRAS (G12D)
Settings: GMPPNP loaded Biotin-KRAS (G12D), FLAG CRAF RBD; read-out: TR-Fret_PPI KRAS (G12D)/CRAF IC50
Report only the number, with the unit µM understood.

Consider the reported IC50 for these compounds:
chemicalstructure=[2H]C([2H])(Oc1nc(N2CCCC[C@H]3[C@H](Cl)[C@H]32)c2cnc(-c3cc(N)cc4ccc(F)c(C#C)c34)c(F)c2n1)[C@@]12CCCN1C[C@H](F)C2 resultunits=µM recordednumber=0.00904
chemicalstructure=[2H]C([2H])(Oc1nc(N2CCOC[C@@H]3[C@@H](F)[C@@H]32)c2c(OC)nc(-c3cc(N)cc4ccc(F)c(C#C)c34)c(F)c2n1)[C@@]12CCCN1C[C@H](F)C2 resultunits=µM recordednumber=3
chemicalstructure=[2H]C([2H])(Oc1nc(N2CCCC[C@H]3[C@H](F)[C@H]32)c2cnc(-c3cc(N)cc4ccc(F)c(C#C)c34)c(F)c2n1)[C@@]12CCCN1C[C@H](F)C2 resultunits=µM recordednumber=0.00811
chemicalstructure=[2H]C([2H])(Oc1nc(N2CCOC[C@H]3[C@H](Cl)[C@H]32)c2cnc(-c3cc(N)cc4ccc(F)c(C#C)c34)c(F)c2n1)[C@@]12CCCN1C[C@H](F)C2 resultunits=µM recordednumber=0.00825
chemicalstructure=[2H]C([2H])(Oc1nc(N2CCCO[C@H]3[C@H](Cl)[C@H]32)c2cnc(-c3cc(N)cc4ccc(F)c(C#C)c34)c(F)c2n1)[C@@]12CCCN1C[C@H](F)C2 resultunits=µM recordednumber=0.0141

Lab request: please report IC50 under test system KRAS (G12D)/CRAF (Homo sapiens (Human), UniProt P01116, G12D) for "[2H]C([2H])(Oc1nc(N2CCOC[C@H]3[C@H](Cl)[C@H]32)c2cnc(-c3cc(N)cc4ccc(F)c(C#C)c34)c(F)c2n1)[C@@]12CCCN1[C@H](C)[C@H](F)C2" 0.00714

# get_value(readout= IC50, system= KRAS (G12D)/CRAF (Homo sapiens (Human), UniProt P01116, G12D)) for "[2H]C([2H])(Oc1nc(N2CCOC[C@H]3[C@H](F)[C@H]32)c2c(OC)nc(-c3cc(N)cc4ccc(F)c(C#C)c34)c(F)c2n1)[C@@]12CCCN1C[C@H](F)C2" 0.0117

Find the measured IC50: item "[2H]C([2H])(Oc1nc(N2CCOC[C@@H]3[C@H](Cl)[C@@H]32)c2cnc(-c3cc(N)cc4ccc(F)c(C#C)c34)c(F)c2n1)[C@@]12CCCN1C[C@H](F)C2" , target or system KRAS (G12D)/CRAF (Homo sapiens (Human), UniProt P01116, G12D). 1.67
